- Test target: Fish/Tetrapod NCOA3 CID
- Method: ITC; iTC200, 25°C, 20 mM sodium phosphate, pH 7.4, 150 mM NaCl; both partners dialysed against the same buffer
Quantity kind: Kd
For clarity, give the value followed by its unit.

[
  {
    "Binder": "ITPGALQDLLRTLKSPSSPQQQQQVLNILKSNPHLMAAFIKQRTAKYQ (domain or fragment, modifications not checked) [Dre CREBBP NCBD]",
    "Kd": "570 nM"
  }
]

Consider the binder IPPNALQDLLRTLKSPSSPQQQQQVLNILKSNPQLMAAFIKQRTAKYQ (domain or fragment, modifications not checked) [Fish/Tetrapod CREBBP NCBD] and give its recorded Kd. 410 nM
